Reported Vd values follow for various compounds
# ASSAY_PROTOCOL: Pharmacokinetic evaluation in mice
# Type: in vivo
# SETUP_CONDITIONS: male, mouse, plasma, iv; mice, i.v. 2 mg/kg
READOUT_KIND: Vd

>  <GIVEN_SMILES>
[2H]C([2H])([2H])n1nc(-c2cccc(Nc3cc(NC(=O)C4CC4)ncc3C(=O)CC)c2OC)cc1P(C)(C)=O

>  <READOUT_KIND>
Vd

>  <RESULT>
3.1 L/kg

$$$$
>  <GIVEN_SMILES>
[2H]C([2H])([2H])NC(=O)c1nnc(NC(=O)C2CC2)cc1Nc1cccc(-c2cc(P(=O)(C3CC3)C3CC3)n(C)n2)c1OC

>  <READOUT_KIND>
Vd

>  <RESULT>
1.2 L/kg

$$$$
>  <GIVEN_SMILES>
CCC(=O)c1cnc(NC(=O)C2CC2)cc1Nc1cccc(-c2cc(P(=O)(C3CC3)C3CC3)n(C)n2)c1OC

>  <READOUT_KIND>
Vd

>  <RESULT>
0.84 L/kg

$$$$
>  <GIVEN_SMILES>
CCC(=O)c1cnc(NC(=O)C2CC2)cc1Nc1cccc(-c2cc(P(C)(C)=O)n(C)n2)c1OC

>  <READOUT_KIND>
Vd

>  <RESULT>
1.5 L/kg

$$$$

Every entry's value here was drawn from patent US20240343747A1.
